I'd appreciate it if you could supply GI50 values for the items below.
Test system: HS 578T breast
experiment: NCI tumour cell line growth inhibition, 48 h

Exercise: Consider the compound CCOC(=O)C1=C(C)N(Cc2ccc(Cl)cc2Cl)C2(O)C=CC(=O)C3=C(O)c4ccccc4C(=O)C312 (stereo not drawn) and give its measured GI50.
Solution: 16.1 µM

Exercise: Consider the compound `O=C1/C(=C/c2ccc(Cl)cc2)CCC/C1=C\c1ccc(Cl)cc1` and give its measured GI50.
Solution: 3.43 µM

Exercise: Consider the compound `Cc1cc2c(C(N)=O)c(N)n(-c3c(C)ccc(O)c3C)c2nc1C` and give its measured GI50.
Solution: 1.44 µM

* * *

I'd appreciate it if you could supply TGI values for the items below.
Tested on: RPMI-8226 leukemia
experiment: NCI tumour cell line growth inhibition, 48 h
The reply should contain only the number, in µM.

Exercise: Consider the molecule `O=C(O)c1c(=O)cccc2ssc12` and give its measured TGI.
Solution: 5.66

Exercise: Consider the molecule `O=C(NNC(=S)NCc1ccccc1)c1csc(NC(=S)NC2CCCCC2)n1` and give its measured TGI.
Solution: 58.2

* * *

Tested on: MDA-MB-435
experiment: NCI tumour cell line growth inhibition, 48 h
I'd appreciate it if you could supply TGI values for the items below.

Exercise: Consider the molecule `Cc1nc2[nH]ncn2c(=O)c1CCCl` and give its measured TGI.
Solution: > 10 µM

Exercise: Consider the molecule O=C1NNC2NC(=O)C3(NN2C1=O)c1ccccc1-c1ccccc13 (stereo not drawn) and give its measured TGI.
Solution: > 100 µM

Exercise: Consider the molecule `N#Cc1c(N)nc(N2CCOCC2)c(C#N)c1-c1ccccn1` and give its measured TGI.
Solution: > 100 µM

* * *

System: SR leukemia
experiment: NCI tumour cell line growth inhibition, 48 h
I'd appreciate it if you could supply TGI values for the items below.

Exercise: Consider the compound `O=C1C2CCN(CC2)C1(CO)CO` and give its measured TGI.
Solution: 55.3 µM

Exercise: Consider the compound Cc1cccc2c1CCC21OC(=O)c2c1ccc1ccccc21 (centres undefined) and give its measured TGI.
Solution: 85.3 µM

Exercise: Consider the compound `Cc1nc2[nH]ncn2c(=O)c1CCCl` and give its measured TGI.
Solution: > 10 µM

Exercise: Consider the compound `ON[C@H]1C[C@@H](n2cnc3c(NC4CC4)ncnc32)[C@H](O)[C@@H]1O` and give its measured TGI.
Solution: > 100 µM

Exercise: Consider the compound `Clc1ccc(C[P+]2(c3ccccc3)CCCCC2)cc1` and give its measured TGI.
Solution: > 100 µM

Exercise: Consider the compound O=C(O)CCC(N=NNc1ccc(-c2nc3ccccc3[nH]2)cc1)C(=O)O (centres undefined) and give its measured TGI.
Solution: > 100 µM

Exercise: Consider the compound `CN(C)c1nncc2n[nH]nc12` and give its measured TGI.
Solution: > 100 µM

Exercise: Consider the compound CC(=O)O[C@H]1[C@@H]2OC(=O)C(CSc3ccccc3)[C@@H]2C[C@H]2O[C@]2(C)CC/C=C(\C)CCC[C@@H]1C (some centres undefined) and give its measured TGI.
Solution: > 20.1 µM

Exercise: Consider the compound `CN(C)CCNC(=O)Cn1cnc2cccc([N+](=O)[O-])c2c1=O` and give its measured TGI.
Solution: > 100 µM

* * *

Tested on: HT29 colon
experiment: NCI tumour cell line growth inhibition, 48 h
I'd appreciate it if you could supply TGI values for the items below.

Exercise: Consider the compound `Cc1cc(-c2ccccn2)cc(C)c1/C=C/c1cncc(-c2nn[nH]n2)c1` and give its measured TGI.
Solution: > 25 µM

Exercise: Consider the compound `C#Cc1cc(Br)c(OC(=O)C(C)(C)C)c(-c2cc(C#C)cc(Br)c2OC(=O)C(C)(C)C)c1` and give its measured TGI.
Solution: > 100 µM

Exercise: Consider the compound `Cc1ccc(C(=O)/C=C/c2cccc([N+](=O)[O-])c2)cc1` and give its measured TGI.
Solution: > 66.1 µM

Exercise: Consider the compound C=C1C(OC(=O)/C=C/c2ccccc2)CC(OC(C)=O)C2(C)C1CC1CC(OC(C)=O)C(C)=C(C(OC(C)=O)C2OC(C)=O)C1(C)C (centres undefined) and give its measured TGI.
Solution: > 100 µM

Exercise: Consider the compound COC(=O)C(Br)C1CCc2ccccc21 (centres undefined) and give its measured TGI.
Solution: > 100 µM

Exercise: Consider the compound O=C1OC(C2(O)OC(=O)c3ccccc32)c2ccccc21 (centres undefined) and give its measured TGI.
Solution: > 100 µM

Exercise: Consider the compound `OC(c1ccc2c(c1)OCO2)c1ccc2c(c1)OCO2` and give its measured TGI.
Solution: > 100 µM

Exercise: Consider the compound `O=S(=O)(SC1=NCCN1)c1cccc2ccccc12` and give its measured TGI.
Solution: > 100 µM

Exercise: Consider the compound COc1nc2c(c(=O)n1C)N=C(c1ccccc1)[C@H](C(CC(=O)c1ccccc1)c1ccccc1)C(c1ccccc1)N2 (some centres undefined) and give its measured TGI.
Solution: > 100 µM

* * *

System: HCT-116 colon
experiment: NCI tumour cell line growth inhibition, 48 h
observable: TGI

Exercise: Consider the molecule COC(=O)C(Br)C1CCc2ccccc21 (stereo unspecified) and give its measured TGI.
Solution: > 100 µM

Exercise: Consider the molecule `O=C(O/N=C1/CCC/C1=C\c1ccccc1)c1ccc(Cl)c(Cl)c1` and give its measured TGI.
Solution: > 100 µM

Exercise: Consider the molecule COC(=O)C(C(=O)C(=O)Nc1cccc([N+](=O)[O-])c1)c1nc2ccc([N+](=O)[O-])cc2[nH]c1=O (stereo unspecified) and give its measured TGI.
Solution: > 100 µM

Exercise: Consider the molecule O=C1OC(=O)C2CCCC3CCCC1C32 (stereo unspecified) and give its measured TGI.
Solution: > 100 µM

Exercise: Consider the molecule CC(NC(=O)c1ccc(NP(=O)(OCc2ccc([N+](=O)[O-])o2)N(C)CCCCCl)cc1)c1ccc(OCC2CCCCC2)c(C(N)=O)c1 (stereo unspecified) and give its measured TGI.
Solution: 31.6 µM

Exercise: Consider the molecule `OCc1cc2ccncc2c2c1[nH]c1ccccc12` and give its measured TGI.
Solution: 15.7 µM

Exercise: Consider the molecule `CN(C)c1nncc2n[nH]nc12` and give its measured TGI.
Solution: > 100 µM

Exercise: Consider the molecule `Cc1ccc(NS(=O)(=O)c2cccc(C#N)c2)c2[nH]cc(C#N)c12` and give its measured TGI.
Solution: > 100 µM

Exercise: Consider the molecule `O=c1cc(-c2ccco2)[nH]c2cc3c(cc12)OCO3` and give its measured TGI.
Solution: > 100 µM

Exercise: Consider the molecule `CO/N=C(\COc1ccc2oc(-c3ccccc3)cc(=O)c2c1)c1ccc(OC)cc1` and give its measured TGI.
Solution: 33.8 µM

Exercise: Consider the molecule COc1ccc(NC(=O)C(C)Oc2ccc(OCC3CCCCC3)cc2)cc1 (stereo unspecified) and give its measured TGI.
Solution: > 100 µM

Exercise: Consider the molecule CC1(c2ccc(Cl)s2)CC(c2ccc(Cl)s2)=C(C#N)C(=C(C#N)C#N)N1 (stereo unspecified) and give its measured TGI.
Solution: 34.2 µM

Exercise: Consider the molecule `O=C(N/N=C/c1ccc([N+](=O)[O-])cc1)Nc1ccc(Br)cc1` and give its measured TGI.
Solution: > 100 µM

Exercise: Consider the molecule `C[C@]12CC[C@@H]3c4ccc(O)cc4CC[C@H]3[C@@H]1CC[C@@H]2OC(=O)CCc1ccccc1` and give its measured TGI.
Solution: 48.4 µM

Exercise: Consider the molecule `NS(=O)(=O)CC1CC[CH-]CC1.[Cl-].[Cl-].[Cl-].[Cl-].[Cl-].[Sb+5].c1ccncc1` and give its measured TGI.
Solution: > 100 µM

Exercise: Consider the molecule `O=c1[nH]nc(-c2ccccc2)n1/N=C/c1ccccc1Cl` and give its measured TGI.
Solution: > 100 µM

* * *

Test system: CAKI-1 renal
experiment: NCI tumour cell line growth inhibition, 48 h
observable: TGI

Exercise: Value wanted: TGI (CAKI-1 renal) of entry `CC1=NN(c2nc(N)nc(C/C(N)=N/O)n2)C(C)(C)C1`
Solution: > 100 µM

Exercise: Value wanted: TGI (CAKI-1 renal) of entry `Cc1ccc(NS(=O)(=O)c2cccc(C#N)c2)c2[nH]cc(C#N)c12`
Solution: > 96.8 µM

Exercise: Value wanted: TGI (CAKI-1 renal) of entry `CC(C)Oc1cccc(N2C(=NCCc3c[nH]c4ccccc34)Nc3ccncc3S2(=O)=O)c1`
Solution: > 100 µM

Exercise: Value wanted: TGI (CAKI-1 renal) of entry `N=CN=CC(=S)O[C@@H]1C(=O)N2CCC[C@@]23CCCC[C@@H]13`
Solution: > 12.5 µM

* * *

System: SN12C renal
experiment: NCI tumour cell line growth inhibition, 48 h; in the data active means GI50 below about 0.43 µM; inactive means the rest
Choose the fitting class; nothing outside T = active, F = inactive is accepted.

Exercise: Give the logged outcome of this assay for the following compound: `Cc1cc(-c2ccccn2)cc(C)c1/C=C/c1cncc(-c2nn[nH]n2)c1`
Solution: F

Exercise: Give the logged outcome of this assay for the following compound: `O=C(Nc1cccc(-c2ccc(Cl)c(C(F)(F)F)c2)c1)C1CCN(Cc2cccc3cccnc23)CC1`
Solution: F

Exercise: Give the logged outcome of this assay for the following compound: `COC(=O)c1cc2c3ccccc3[nH]c2c2sccc12`
Solution: F

Exercise: Give the logged outcome of this assay for the following compound: `Oc1ccc(C2c3ccccc3Oc3ccccc32)c2cccnc12`
Solution: F

Exercise: Give the logged outcome of this assay for the following compound: `CCCN(CCC)c1ccc(/C=N/NC(=O)c2cccnc2)c(OC)c1`
Solution: F

Exercise: Give the logged outcome of this assay for the following compound: `Cc1cc2c(C(N)=O)c(N)n(-c3c(C)ccc(O)c3C)c2nc1C`
Solution: F

Exercise: Give the logged outcome of this assay for the following compound: `CCC(=O)Nc1ccc(C)c(-c2ccc(C(=O)NCC3CC3)cc2)c1`
Solution: F

Exercise: Give the logged outcome of this assay for the following compound: CCOC(=O)C1=C(C)N(Cc2ccc(Cl)cc2Cl)C2(O)C=CC(=O)C3=C(O)c4ccccc4C(=O)C312 (stereo not drawn)
Solution: F

Exercise: Give the logged outcome of this assay for the following compound: `CO/N=C(\COc1ccc2oc(-c3ccccc3)cc(=O)c2c1)c1ccc(OC)cc1`
Solution: F

Exercise: Give the logged outcome of this assay for the following compound: `Cc1cc(N2CCOCC2)nc(N(CCCNc2ccnc3cc(Cl)ccc23)Cc2ccco2)n1`
Solution: F

Exercise: Give the logged outcome of this assay for the following compound: `CC(=[N-])N1CCC[C@@H](Nc2c3ccccc3nc3ccccc23)C1.[Cl][Pt].[NH-]CCC[NH-]`
Solution: T

Exercise: Give the logged outcome of this assay for the following compound: `O=C1C=CC(=O)N1c1cccc(N2C(=O)C=CC2=O)c1`
Solution: F

Exercise: Give the logged outcome of this assay for the following compound: `Fc1cccc(-n2ccc(-c3ccccc3)nc2=S)c1`
Solution: F
